protocol summary: PI 3-Kinase (human) HTRF assay, p110δ/p85α
Format: biochemical
test parameters: read-out: PI3K γ IC50
Below: a set of entries, each annotated with reported IC50.

// IC50 lookup, compound = Nc1nc2cc(-c3ccc4ncc(NCCCN5CCOCC5)nc4c3)ccc2o1 , result: < 0.1 µM

Summary for this compound, CC(C)N1CCC(n2cnc3ccc(-c4cnc(Cl)c(NS(C)(=O)=O)c4)cc3c2=O)CC1 : IC50 is < 0.1 µM

Entry COc1ccc(-c2ccc3ncc(C(=O)N4CCOCC4)n3c2)cc1S(=O)(=O)Nc1ccccc1 , IC50 reported as > 10 µM

Kindly note the recorded IC50 for C[C@H]1CN(c2cnc3cccc(-c4ccc5oc(N)nc5c4)c3n2)CCN1 , which is > 10 µM

* * *

assay target: PI3K γ (Homo sapiens (Human))
Sequence (P48736 whole entry, looked up): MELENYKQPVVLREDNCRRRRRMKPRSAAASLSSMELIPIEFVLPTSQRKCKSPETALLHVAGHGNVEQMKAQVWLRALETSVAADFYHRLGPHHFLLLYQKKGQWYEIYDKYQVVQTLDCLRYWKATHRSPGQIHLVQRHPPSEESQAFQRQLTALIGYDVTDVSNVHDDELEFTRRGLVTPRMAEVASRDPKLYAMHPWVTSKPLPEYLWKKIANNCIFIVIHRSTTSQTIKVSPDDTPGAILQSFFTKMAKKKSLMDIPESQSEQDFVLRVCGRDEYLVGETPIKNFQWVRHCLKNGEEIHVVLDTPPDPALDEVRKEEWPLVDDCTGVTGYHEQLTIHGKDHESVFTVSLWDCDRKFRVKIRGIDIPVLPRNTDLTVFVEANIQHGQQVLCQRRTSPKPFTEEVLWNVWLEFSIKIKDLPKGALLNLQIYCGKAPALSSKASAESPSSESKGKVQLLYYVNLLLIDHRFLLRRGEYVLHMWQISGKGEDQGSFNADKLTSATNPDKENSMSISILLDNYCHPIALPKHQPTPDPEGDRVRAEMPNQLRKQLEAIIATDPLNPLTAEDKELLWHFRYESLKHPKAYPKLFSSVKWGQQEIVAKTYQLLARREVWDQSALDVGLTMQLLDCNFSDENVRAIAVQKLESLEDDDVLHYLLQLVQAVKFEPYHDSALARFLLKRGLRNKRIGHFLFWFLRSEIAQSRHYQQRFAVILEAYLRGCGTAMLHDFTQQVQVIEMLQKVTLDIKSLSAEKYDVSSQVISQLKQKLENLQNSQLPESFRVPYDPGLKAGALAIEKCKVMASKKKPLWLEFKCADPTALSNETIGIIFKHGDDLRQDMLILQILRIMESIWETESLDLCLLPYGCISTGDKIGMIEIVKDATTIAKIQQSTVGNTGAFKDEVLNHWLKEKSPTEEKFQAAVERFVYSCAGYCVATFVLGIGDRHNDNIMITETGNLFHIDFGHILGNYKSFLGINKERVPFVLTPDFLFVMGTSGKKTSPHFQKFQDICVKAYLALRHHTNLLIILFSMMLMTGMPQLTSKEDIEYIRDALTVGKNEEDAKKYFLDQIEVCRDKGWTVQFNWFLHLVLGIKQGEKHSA
protocol summary: PI 3-Kinase (human) HTRF assay, p110γ
Assay type: biochemical
test parameters: read-out: PI3K δ IC50
endpoint label: IC50

Please review the following examples before continuing.
// IC50 value for CCN(CC)CCNC(=O)c1cnc2ccc(-c3ccc4oc(N)nc4c3)cn12 : < 1000 nM

Entry CS(=O)(=O)Nc1cc(-c2ccc3ncc(C(=O)N4CCOCC4)n3c2)cnc1Cl , IC50 reported as < 100 nM

# IC50 (compound: Nc1nc2ccc(-c3ccc4sc(N)nc4c3)cc2o1 ) is < 100 nM

Notebook: Cc1nccn1C1CN(c2cnc3ccc(-c4ccc5oc(N)nc5c4)cc3n2)C1 , IC50 read as < 10000 nM

Please fill in: IC50 reported for Nc1nc2ccc(-c3cc(F)c4oc(N)nc4c3)cc2o1 = < 100 nM

// sample Nc1nc2cc(-c3ccc4ncc(N5CC(N6CCC(O)CC6)C5)nc4c3)ccc2o1 , its IC50 was < 10000 nM

Now look at this entry.
What the record says about Nc1nc2cc(-c3ccc4ncc(N5CCNC(C(F)F)C5)nc4c3)ccc2o1 (stereo not shown) : IC50 is < 1000 nM

* * *

assay target: PI3K β (Homo sapiens (Human), UniProt P42338)
Sequence (P42338 whole entry): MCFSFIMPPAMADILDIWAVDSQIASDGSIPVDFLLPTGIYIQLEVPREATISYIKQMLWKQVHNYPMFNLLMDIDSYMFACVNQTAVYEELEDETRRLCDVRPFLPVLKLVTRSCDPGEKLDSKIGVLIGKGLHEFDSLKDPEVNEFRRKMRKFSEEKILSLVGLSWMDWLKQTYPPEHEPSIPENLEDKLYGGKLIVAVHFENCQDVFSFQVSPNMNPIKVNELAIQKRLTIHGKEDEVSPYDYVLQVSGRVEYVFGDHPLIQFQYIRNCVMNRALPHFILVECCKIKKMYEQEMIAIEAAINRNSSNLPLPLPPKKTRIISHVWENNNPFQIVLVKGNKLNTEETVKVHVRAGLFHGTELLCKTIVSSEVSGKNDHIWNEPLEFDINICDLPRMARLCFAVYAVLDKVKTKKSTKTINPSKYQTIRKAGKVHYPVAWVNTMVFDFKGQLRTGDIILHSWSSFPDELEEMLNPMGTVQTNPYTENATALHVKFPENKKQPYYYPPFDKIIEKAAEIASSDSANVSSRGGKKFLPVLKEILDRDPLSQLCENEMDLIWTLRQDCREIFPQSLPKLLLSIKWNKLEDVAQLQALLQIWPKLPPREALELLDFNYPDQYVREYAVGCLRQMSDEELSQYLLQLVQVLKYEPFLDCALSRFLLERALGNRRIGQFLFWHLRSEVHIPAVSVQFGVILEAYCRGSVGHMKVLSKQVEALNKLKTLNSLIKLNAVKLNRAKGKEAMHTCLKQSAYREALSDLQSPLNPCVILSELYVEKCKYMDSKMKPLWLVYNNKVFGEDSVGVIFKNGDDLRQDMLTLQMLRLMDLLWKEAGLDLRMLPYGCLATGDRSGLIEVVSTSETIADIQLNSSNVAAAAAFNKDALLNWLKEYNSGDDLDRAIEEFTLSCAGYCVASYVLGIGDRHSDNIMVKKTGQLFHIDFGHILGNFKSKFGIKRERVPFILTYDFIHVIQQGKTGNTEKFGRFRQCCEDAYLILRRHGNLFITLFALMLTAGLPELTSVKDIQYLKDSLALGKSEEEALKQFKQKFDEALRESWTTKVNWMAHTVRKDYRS
Sequence (P27986 whole entry partner): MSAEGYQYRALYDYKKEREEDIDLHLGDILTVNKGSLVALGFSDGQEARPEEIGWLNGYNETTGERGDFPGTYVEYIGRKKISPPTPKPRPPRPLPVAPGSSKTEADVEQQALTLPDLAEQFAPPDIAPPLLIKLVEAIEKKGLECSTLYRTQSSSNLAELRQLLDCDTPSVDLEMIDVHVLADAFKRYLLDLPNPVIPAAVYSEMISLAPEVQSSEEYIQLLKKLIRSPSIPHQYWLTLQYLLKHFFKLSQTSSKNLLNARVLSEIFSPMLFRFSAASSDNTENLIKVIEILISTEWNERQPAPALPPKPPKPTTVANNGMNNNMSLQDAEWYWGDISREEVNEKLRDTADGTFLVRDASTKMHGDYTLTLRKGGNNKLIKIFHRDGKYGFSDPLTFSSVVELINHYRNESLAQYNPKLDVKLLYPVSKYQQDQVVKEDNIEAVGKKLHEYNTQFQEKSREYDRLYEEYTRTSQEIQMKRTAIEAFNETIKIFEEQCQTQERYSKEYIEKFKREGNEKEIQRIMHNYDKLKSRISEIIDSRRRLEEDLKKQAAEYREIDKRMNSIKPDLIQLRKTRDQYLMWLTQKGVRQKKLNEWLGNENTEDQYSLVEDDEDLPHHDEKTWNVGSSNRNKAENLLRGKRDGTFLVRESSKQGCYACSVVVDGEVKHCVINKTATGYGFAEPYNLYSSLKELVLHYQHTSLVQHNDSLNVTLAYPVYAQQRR
protocol summary: PI 3-Kinase (human) HTRF assay, p110β/p85α
Format: biochemical
endpoint label: IC50

Use these answered entries as a reference point.
Looking up COc1ncc(-c2ccc3ncc(C(=O)N4CCOCC4)n3c2)cc1N , I found its IC50 recorded as > 10 µM

Short answer for Nc1nc2cc(-c3ccc4ncc(C(=O)N5CCOCC5)n4c3)ccc2o1 : IC50 was < 10 µM

# IC50 of CN1CC(C(=O)N2CCN(c3cnc4ccc(-c5ccc6oc(N)nc6c5)cc4n3)CC2)C1 = < 1 µM

Consider Nc1nc2cc(-c3ccc4ncc(N5CC(N6CC7CCC(C6)O7)C5)nc4n3)ccc2o1 . Its measured IC50 is > 10 µM

The compound CO[C@H]1CCN(C(=O)c2cnc3ccc(-c4ccc5oc(N)nc5c4)cn23)C1 showed IC50 equal to < 10 µM

Further cases:
Nc1nc2cc(-c3ccc4ncc(NCCCN5CCOCC5)nc4c3)ccc2o1 has a reported IC50 of < 1 µM

Briefly, IC50 measured for CC(=O)Nc1ncc(-c2ccc3oc(N)nc3c2)s1 : > 10 µM

get_value(item= Nc1nc2cc(-c3ccc4ncc(N5CCOCC5)nc4c3)ccc2s1 , readout=IC50) returns < 1 µM

Lookup result for O=C(c1cnc2ccc(-c3cncc(S(=O)(=O)Nc4ccccc4)c3)cn12)N1CCOCC1 ; measured IC50: > 10 µM

Looking up Nc1nc2cc(-c3ccc4ncc(-c5ccc(N6CCOCC6)nc5)n4c3)ccc2o1 , I see its IC50 listed as < 1 µM

Looking up Cc1nc2ccc(-c3ccc4oc(N)nc4c3)cn2c1C(=O)N1CCOCC1 , I found its IC50 recorded as > 10 µM

* * *

protocol summary: PI 3-Kinase (human) HTRF assay, p110δ/p85α
Format: biochemical
test parameters: read-out: PI3K γ IC50
pIC50: −log10 of the molar value.
endpoint label: pIC50

Reported pIC50 ( Nc1nc2cc(-c3ccc4ncc(N5CCN(C(=O)C6(N)CC6)CC5)nc4c3)ccc2o1 ) = > 5.00

Reported pIC50 of Nc1nc2cc(-c3ccc4ncc(N5CCN(C(=O)[C@@H](N)CO)CC5)nc4c3)ccc2o1 : > 5.00

Then this molecule:
Noted for COc1nc(-c2ccc3oc(N)nc3c2)cnc1N : its pIC50 reads > 5.00

* * *

assay target: PI3K β (Homo sapiens (Human))
endpoint label: IC50

Study these solved cases before continuing.
PI3K β (Homo sapiens (Human)) assay, compound Nc1nc2cc(-c3cccc4[nH]nc(N)c34)ccc2o1 , recorded IC50 = > 10 µM

// compound C[C@H]1CN(c2cnc3ccc(-c4ccc5oc(N)nc5c4)nc3c2)CCN1 , assay PI3K β (Homo sapiens (Human)), IC50 value: < 0.1 µM

Measured IC50 for this entry Nc1nc2cc(-c3ccc4ncc(N5CCn6cncc6C5)nc4c3)ccc2o1 on PI3K β (Homo sapiens (Human)): < 0.1 µM

// returns IC50 for Nc1nc2cc(-c3ccc4ncn(C5CCOCC5)c4c3)ccc2o1 with PI3K β (Homo sapiens (Human)); value = > 10 µM

Assay PI3K β (Homo sapiens (Human)), sample Nc1nc2cc(-c3cn4c(C(=O)N5CCOCC5)cnc4cn3)ccc2o1 , IC50 read: > 10 µM

Observed IC50, PI3K β (Homo sapiens (Human)), O=C(c1cnc2ccc(-c3cnc(Cl)c(NS(=O)(=O)c4ccc(F)cc4F)c3)cn12)N1CCOCC1 : < 0.1 µM

Note to self: IC50 of Nc1nc2cc(-c3ccc4ncc(N5CCNC(C(F)(F)F)C5)nc4c3)ccc2o1 (stereo not drawn) with PI3K β (Homo sapiens (Human)) was < 1 µM

Item: Cc1nccn1C1CN(c2cnc3ccc(-c4ccc5oc(N)nc5c4)nc3c2)C1 | System: PI3K β (Homo sapiens (Human)) | IC50: < 10 µM

Continuing:
Assay PI3K β (Homo sapiens (Human)), sample Nc1nc2ccc(-c3ccc4ncc(N5CCOCC5)nc4c3)cc2s1 , IC50 read: > 10 µM

* * *

Let's look at some compounds and their measured IC50.
protocol summary: PI 3-Kinase (human) HTRF assay, p110δ/p85α
Assay type: biochemical
test parameters: read-out: PI3K γ IC50

Example entries and their recorded answers appear below.
So, Cc1cc2ncc(C(=O)N3CCOCC3)n2cc1-c1ccc2oc(N)nc2c1 ? Its IC50 was > 10 µM

// IC50 value for Nc1nc2cc(-c3ccc4ncc(C(=O)N5C6CCC5COC6)n4c3)ccc2o1 : < 10 µM

Looking up CCN(CC)CCNC(=O)c1cnc2ccc(-c3ccc4oc(N)nc4c3)cn12 , I see its IC50 listed as < 1 µM

Continuing:
Record Nc1nc2cc(-c3ccc4ncc(C(=O)N5CC(n6cccn6)C5)n4c3)ccc2o1 , field IC50: < 10 µM

Measured IC50, Nc1nc2cc(-c3ccc4ncc(C(=O)N5CC5)n4c3)ccc2o1 : > 10 µM

get_value(item= Nc1nc2cc(-c3ccc4nnc(-c5cccnc5)n4c3)ccc2o1 , readout=IC50) returns > 10 µM

COc1ncc(-c2ccc3ncn(C4CCN(C)CC4)c(=O)c3c2)cc1NS(=O)(=O)c1ccccc1 yielded IC50 of < 0.1 µM

For record NC(=O)[C@H]1CCCN1C(=O)c1cnc2ccc(-c3ccc4oc(N)nc4c3)cn12 the listed IC50 is > 10 µM

* * *

protocol summary: PI 3-Kinase (human) HTRF assay, p110δ/p85α
Type: biochemical
test parameters: read-out: PI3K γ IC50
# Lookup of reported IC50 keyed by entry

Answered examples (2):
GET /value?item= CC(C)[C@H](N)C(=O)N1CCN(c2cnc3ccc(-c4ccc5oc(N)nc5c4)cc3n2)CC1 &field=IC50 returns < 1 µM

The reported IC50 of the compound Nc1ncc(-c2ccc3ncc(C(=O)N4CCOCC4)n3c2)cc1C(F)(F)F was > 10 µM

Okay, next one:
Lab book: IC50 of CNc1nc2cc(-c3ccc4ncc(C(=O)N5CCOCC5)n4c3)ccc2o1 noted as > 10 µM

* * *

pIC50: −log10 of the molar value.
Form: system (PI3K δ (Homo sapiens (Human), UniProt O00329)), quantity (pIC50), values below.

Consider the worked cases shown below.
Tested system PI3K δ (Homo sapiens (Human), UniProt O00329); pIC50 recorded for Cc1ncccc1-c1cnc2ccc(-c3ccc4oc(N)nc4c3)cc2n1 was < 5.00

Param item: Nc1nc2cc(-c3ccc4ncc(N5CCOCC5)n4n3)ccc2o1 ; param system: PI3K δ (Homo sapiens (Human), UniProt O00329); output pIC50: < 5.00

Tested system PI3K δ (Homo sapiens (Human), UniProt O00329); pIC50 recorded for CCNC(=O)c1cnc2ccc(-c3ccc4oc(N)nc4c3)cn12 was > 6.00

Form: item CN1CCC(N(C)c2ncnc3ccc(-c4ccc5oc(N)nc5c4)cc23)CC1 ; test system PI3K δ (Homo sapiens (Human), UniProt O00329); pIC50: > 6.00

Tested on PI3K δ (Homo sapiens (Human), UniProt O00329): Cn1c(=O)n(-c2ccc(C(C)(C)C#N)cc2)c2c3cc(-c4ccc5oc(N)nc5c4)ccc3ncc21 . Observed pIC50: > 7.00

Record CN1CCN(C(=O)c2cnc3ccc(-c4ccc5oc(N)nc5c4)cc3n2)CC1 / PI3K δ (Homo sapiens (Human), UniProt O00329), pIC50 recorded as < 5.00

Field pIC50 (PI3K δ (Homo sapiens (Human), UniProt O00329)), entry Nc1nc2cc(-c3ccc4ncc(N5CCNC(=O)C5)nc4c3)ccc2o1 : < 5.00

C[C@H]1COCCN1C1CN(c2cnc3ccc(-c4ccc5oc(N)nc5c4)nc3n2)C1 on PI3K δ (Homo sapiens (Human), UniProt O00329) gives pIC50 = > 5.00

Reading of pIC50 for Nc1nc2cc(-c3ccc4ncc(C(=O)N5CCN(CC6CC6)CC5)n4c3)ccc2o1 with PI3K δ (Homo sapiens (Human), UniProt O00329): > 5.00

// pIC50 (PI3K δ (Homo sapiens (Human), UniProt O00329)) for C[C@H]1CN(C2CN(c3cnc4ccc(-c5ccc6oc(N)nc6c5)nc4n3)C2)CCN1 = > 5.00

More entries:
Observed pIC50, PI3K δ (Homo sapiens (Human), UniProt O00329), Nc1nc2cc(-c3ccc4ncc(OC5CCOCC5)nc4c3)ccc2o1 : > 5.00
